// values below are reported IC50
System: IL-23 mediated STAT3 signalling (DB cells)
Experiment summary: Functional inhibition of IL-23 mediated STAT3 signalling (phospho-STAT3 Tyr705) in DB cells
Format: cell-based, human
Condition details: Table 3-2, EC80 of hIL-23, read-out: hIL-23 (pSTAT3) antagonist IC50
*1 amine or outer side, *2 acyl side, *3 side chain or, on linkers, in order; H or OH if unused. Where a SMILES comes first, the peptide text is derived from it. Bridges are numbered along the chain shown (N, C = ends). [ ]: non-standard residue; d: D form. The star is where a group is joined. 2Nal = N[C@@H](Cc1ccc2ccccc2c1)C(=O)O; AEF = NCCOc1ccc(C[C@H](N)C(=O)O)cc1; X1 = O=C(Cc1ccc(CN[*:1])cc1)[*:2]; 3Pal = N[C@@H](Cc1cccnc1)C(=O)O; αMeL = CC(C)C[C@](C)(N)C(=O)O; Pyrrolidide = C1CCN(*)C1; Dab = NCC[C@H](N)C(=O)O

Please review the entries below; each comes with its answer.
- Molecule: "CNC(=O)[C@H](Cc1cccnc1)NC(=O)[C@H](COC)NC(=O)[C@@H]1CCC(=O)NCc2ccc(cc2)CC(=O)N[C@@H](CO)C(=O)N[C@H]2CCC(=O)NCC[C@H](NC(=O)[C@H](CCC(N)=O)NC(=O)[C@H](Cc3c[nH]c4ccccc34)NC2=O)C(=O)N[C@@H](Cc2ccc(OCCN)cc2)C(=O)N[C@@H](Cc2ccc3ccccc3c2)C(=O)N[C@@](C)(CC(C)C)C(=O)N1 [Compound 37]"
  Observed measurement: "0.069 nM"
- Molecule: "CSCC[C@H](NC(=O)[C@@H]1CSCC(=O)CSC[C@H](NC(=O)[C@@H](N)CCC(=O)O)C(=O)N[C@@H](Cc2c[nH]c3ccccc23)C(=O)N[C@@H](CC(C)C)C(=O)N[C@H]2CSCC(=O)CSC[C@H](NC(=O)[C@H](CC(N)=O)NC(=O)[C@H](CCCNC(=N)N)NC(=O)[C@H](Cc3ccc(O)cc3)NC(=O)[C@H](Cc3ccc(O)cc3)NC2=O)C(=O)N[C@@H](CC(N)=O)C(=O)N1)C(N)=O (single isomer, unassigned) [I4 (isomer 3), H-EC(4a)WLC(5a)YYRNC(5a)NC(4a)M-[NH2], reference compound]"
  Observed measurement: "> 1000 nM"

Then this molecule:
IC50 for CNC(=O)[C@H](Cc1cccnc1)NC(=O)[C@H](CCN)NC(=O)[C@@H]1CCC(=O)NCc2ccc(cc2)CC(=O)N[C@@H](CO)C(=O)N[C@H]2CCC(=O)NCC[C@H](NC(=O)[C@H](CCC(=O)N3CCCC3)NC(=O)[C@H](Cc3c[nH]c4ccccc34)NC2=O)C(=O)N[C@@H](Cc2ccc(OCCN)cc2)C(=O)N[C@@H](Cc2ccc3ccccc3c2)C(=O)N[C@@](C)(CC(C)C)C(=O)N1 [Compound 27] ([X1]SEWE(Pyrrolidide)[Dab][AEF][2Nal][αMeL]E[Dab][3Pal]-NHMe; lactam 3-6, N-10) is 0.23 nM

----------
Test system: IL-23 mediated STAT3 signalling (DB cells)
Experiment summary: Functional inhibition of IL-23 mediated STAT3 signalling (phospho-STAT3 Tyr705) in DB cells
Format: cell-based, human
Condition details: Table 3-2, EC80 of hIL-23, read-out: hIL-23 (pSTAT3) antagonist IC50
Protocol: Upon binding of IL-23, the IL-23R forms a heterodimer signalling complex together with IL-12R β1, which through the JAK2/STAT3 pathway promotes phosphorylation of STAT3 to form phospho-STAT3. […] The assay procedure was as follows. […] For some wells buffer only or IL-23 only corresponding to the EC80 was added to obtain readouts needed for normalization. […]
*1 amine or outer side, *2 acyl side, *3 side chain or, on linkers, in order; H or OH if unused. Where a SMILES comes first, the peptide text is derived from it. Bridges are numbered along the chain shown (N, C = ends). [ ]: non-standard residue; d: D form. 2Nal = N[C@@H](Cc1ccc2ccccc2c1)C(=O)O; AEF = NCCOc1ccc(C[C@H](N)C(=O)O)cc1; X1 = O=C(Cc1ccc(CN[*:1])cc1)[*:2]; 3Pal = N[C@@H](Cc1cccnc1)C(=O)O; αMeL = CC(C)C[C@](C)(N)C(=O)O; Dab = NCC[C@H](N)C(=O)O
// values below are reported pIC50
In textbook form, pIC50 equals minus log to base ten of the concentration in mol/L.

Please review the entries below; each comes with its answer.
- Molecule: "CC(C)C[C@]1(C)NC(=O)[C@H](Cc2ccc3ccccc3c2)NC(=O)[C@H](Cc2ccc(OCCN)cc2)NC(=O)[C@@H]2CCNC(=O)CC[C@H](NC(=O)[C@H](CO)NC(=O)Cc3ccc(cc3)CNC(=O)CC[C@@H](C(=O)N[C@@H](CCN)C(=O)N[C@H](Cc3c[nH]cn3)C(N)=O)NC1=O)C(=O)N[C@@H](Cc1c[nH]c3ccccc13)C(=O)N[C@@H](CCC(N)=O)C(=O)N2"
  Observed measurement: 8.17
- Molecule: "CNC(=O)[C@H](Cc1cccnc1)NC(=O)[C@H](CCN)NC(=O)[C@@H]1CCC(=O)NCc2ccc(cc2)CC(=O)N[C@@H](Cc2ccccc2)C(=O)N[C@H]2CCC(=O)NCC[C@H](NC(=O)[C@H](CCC(N)=O)NC(=O)[C@H](Cc3c[nH]c4ccccc34)NC2=O)C(=O)N[C@@H](Cc2ccc(OCCN)cc2)C(=O)N[C@@H](Cc2ccc3ccccc3c2)C(=O)N[C@@](C)(CC(C)C)C(=O)N1 [Compound 21] ([X1]FEWQ[Dab][AEF][2Nal][αMeL]E[Dab][3Pal]-NHMe; lactam 3-6, N-10)"
  Observed measurement: 10.20

Then this molecule:
pIC50 for "CC(C)C[C@]1(C)NC(=O)[C@H](Cc2ccc3ccccc3c2)NC(=O)[C@H](Cc2ccc(OCCN)cc2)NC(=O)[C@@H]2CCNC(=O)CC[C@H](NC(=O)[C@H](CO)NC(=O)Cc3ccc(cc3)CNC(=O)CC[C@@H](C(=O)N[C@@H](CCN)C(=O)NCCc3cccnc3)NC1=O)C(=O)N[C@@H](Cc1c[nH]c3ccccc13)C(=O)N[C@@H](CCC(N)=O)C(=O)N2" is 9.89

----------
Target: human IL-23R (Homo sapiens, UniProt Q5VWK5)
Construct: Nanoluc luciferase (Nluc); secretion signal encoded by the plasmid (not specified); crude membranes used in the assay
Sequence (Q5VWK5 22-629): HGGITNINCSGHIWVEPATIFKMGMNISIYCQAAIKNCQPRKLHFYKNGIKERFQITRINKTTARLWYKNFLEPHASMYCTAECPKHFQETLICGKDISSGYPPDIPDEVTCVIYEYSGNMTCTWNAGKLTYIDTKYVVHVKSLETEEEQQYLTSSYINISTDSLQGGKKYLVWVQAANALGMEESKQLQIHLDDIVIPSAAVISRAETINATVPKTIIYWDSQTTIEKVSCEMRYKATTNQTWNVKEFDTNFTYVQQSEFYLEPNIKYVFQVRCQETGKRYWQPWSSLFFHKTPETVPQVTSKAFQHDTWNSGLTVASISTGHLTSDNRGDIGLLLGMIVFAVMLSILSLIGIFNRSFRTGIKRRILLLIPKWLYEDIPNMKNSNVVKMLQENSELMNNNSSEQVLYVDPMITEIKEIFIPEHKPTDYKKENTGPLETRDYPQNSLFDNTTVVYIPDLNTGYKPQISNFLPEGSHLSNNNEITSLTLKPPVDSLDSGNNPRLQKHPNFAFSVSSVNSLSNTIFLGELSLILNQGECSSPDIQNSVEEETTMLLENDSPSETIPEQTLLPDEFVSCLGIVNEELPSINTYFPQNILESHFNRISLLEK
Experiment summary: Binding assay: displacement of fluorophore (TAMRA)-labelled reference compound from human IL-23R (BRET, Nluc-IL23R fusion protein membranes)
*1 amine or outer side, *2 acyl side, *3 side chain or, on linkers, in order; H or OH if unused. Where a SMILES comes first, the peptide text is derived from it. Bridges are numbered along the chain shown (N, C = ends). [ ]: non-standard residue; d: D form. The star is where a group is joined. 2Nal = N[C@@H](Cc1ccc2ccccc2c1)C(=O)O; AEF = NCCOc1ccc(C[C@H](N)C(=O)O)cc1; X1 = O=C(Cc1ccc(CN[*:1])cc1)[*:2]; 3Pal = N[C@@H](Cc1cccnc1)C(=O)O; αMeL = CC(C)C[C@](C)(N)C(=O)O; Pyrrolidide = C1CCN(*)C1; Dab = NCC[C@H](N)C(=O)O
Measure name: pIC50
In textbook form, pIC50 equals minus log to base ten of the concentration in mol/L.

- Compound: "CNC(=O)[C@H](Cc1cccnc1)NC(=O)[C@H](CCN)NC(=O)[C@@H]1CCC(=O)NCc2ccc(cc2)CC(=O)N[C@@H](CO)C(=O)N[C@H]2CCC(=O)NCC[C@H](NC(=O)[C@H](CCC(=O)N3CCCC3)NC(=O)[C@H](Cc3c[nH]c4ccccc34)NC2=O)C(=O)N[C@@H](Cc2ccc(OCCN)cc2)C(=O)N[C@@H](Cc2ccc3ccccc3c2)C(=O)N[C@@](C)(CC(C)C)C(=O)N1 [Compound 27] ([X1]SEWE(Pyrrolidide)[Dab][AEF][2Nal][αMeL]E[Dab][3Pal]-NHMe; lactam 3-6, N-10)"
  pIC50: 10.77

Then this compound:
pIC50 for CNC(=O)[C@H](Cc1cccnc1)NC(=O)[C@H](CCN)NC(=O)[C@@H]1CCC(=O)NCc2ccc(cc2)CC(=O)N[C@@H](CO)C(=O)N[C@H]2CCC(=O)NCC[C@H](NC(=O)[C@H](C)NC(=O)[C@H](Cc3c[nH]c4ccccc34)NC2=O)C(=O)N[C@@H](Cc2ccc(OCCN)cc2)C(=O)N[C@@H](Cc2ccc3ccccc3c2)C(=O)N[C@@](C)(CC(C)C)C(=O)N1 [Compound 22] ([X1]SEWA[Dab][AEF][2Nal][αMeL]E[Dab][3Pal]-NHMe; lactam 3-6, N-10) is 10.46

----------
Target: human IL-23R (Homo sapiens, UniProt Q5VWK5)
Construct: Nanoluc luciferase (Nluc); secretion signal encoded by the plasmid (not specified); crude membranes used in the assay
Experiment summary: Binding assay: displacement of fluorophore (TAMRA)-labelled reference compound from human IL-23R (BRET, Nluc-IL23R fusion protein membranes)
*1 amine or outer side, *2 acyl side, *3 side chain or, on linkers, in order; H or OH if unused. Where a SMILES comes first, the peptide text is derived from it. Bridges are numbered along the chain shown (N, C = ends). [ ]: non-standard residue; d: D form. 2Nal = N[C@@H](Cc1ccc2ccccc2c1)C(=O)O; AEF = NCCOc1ccc(C[C@H](N)C(=O)O)cc1; X1 = O=C(Cc1ccc(CN[*:1])cc1)[*:2]; 3Pal = N[C@@H](Cc1cccnc1)C(=O)O; αMeL = CC(C)C[C@](C)(N)C(=O)O; Dab = NCC[C@H](N)C(=O)O
Measure name: IC50

IC50 for CNC(=O)CC[C@@H]1NC(=O)[C@H](Cc2c[nH]c3ccccc23)NC(=O)[C@@H]2CCC(=O)NCC[C@H](NC1=O)C(=O)N[C@@H](Cc1ccc(OCCN)cc1)C(=O)N[C@@H](Cc1ccc3ccccc3c1)C(=O)N[C@@](C)(CC(C)C)C(=O)N[C@H](C(=O)N[C@@H](CCN)C(=O)N[C@@H](Cc1cccnc1)C(=O)NC)CCC(=O)NCc1ccc(cc1)CC(=O)N[C@@H](CO)C(=O)N2 [Compound 29] ([X1]SEWE(NHMe)[Dab][AEF][2Nal][αMeL]E[Dab][3Pal]-NHMe; lactam 3-6, N-10) is 11 pM
